biological target: T1, Human CD137 ECD (human); assay: single mutant vs template dBBDu183H
T1 construct: also called 4-1BB
T1 sequence (chain, as listed by the source limits assumed): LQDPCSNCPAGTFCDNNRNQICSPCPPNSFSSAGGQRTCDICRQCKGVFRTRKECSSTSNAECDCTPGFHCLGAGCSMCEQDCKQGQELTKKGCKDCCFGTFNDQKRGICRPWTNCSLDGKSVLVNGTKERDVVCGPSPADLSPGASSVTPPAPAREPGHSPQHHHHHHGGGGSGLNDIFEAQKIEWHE
Parameter threshold = 0.7 fold. Response is Met when fold change of affinity meets or exceeds it, else Not met.

Below are worked cases with known answers.
>>> category_label("H183/L072 VH K64L (antibody, name in Kabat numbering, V domains shown) VH: QVQLVESGGGLVQPGRSLRLSCAASGFTFSNAWMHWVRQAPGKGLEWVAQIKDKGNAYAAYYAPSVLGRFTISRDDSKNSIYLQMNSLKTEDTAVYYCHYVHYASASTVLPAFGVDAWGQGTTVTVSS VL: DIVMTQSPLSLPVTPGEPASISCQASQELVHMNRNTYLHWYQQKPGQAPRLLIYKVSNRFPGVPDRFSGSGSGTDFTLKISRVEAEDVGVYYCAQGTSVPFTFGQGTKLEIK")
"Met"
>>> category_label("H183/L072 VH A60N (antibody, name in Kabat numbering, V domains shown) VH: QVQLVESGGGLVQPGRSLRLSCAASGFTFSNAWMHWVRQAPGKGLEWVAQIKDKGNAYAAYYNPSVKGRFTISRDDSKNSIYLQMNSLKTEDTAVYYCHYVHYASASTVLPAFGVDAWGQGTTVTVSS VL: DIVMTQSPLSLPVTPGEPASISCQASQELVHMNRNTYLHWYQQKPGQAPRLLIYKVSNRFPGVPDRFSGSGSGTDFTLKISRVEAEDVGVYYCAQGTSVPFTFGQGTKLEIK")
"Met"
>>> category_label("H183/L072 VH Y55A (antibody, name in Kabat numbering, V domains shown) VH: QVQLVESGGGLVQPGRSLRLSCAASGFTFSNAWMHWVRQAPGKGLEWVAQIKDKGNAAAAYYAPSVKGRFTISRDDSKNSIYLQMNSLKTEDTAVYYCHYVHYASASTVLPAFGVDAWGQGTTVTVSS VL: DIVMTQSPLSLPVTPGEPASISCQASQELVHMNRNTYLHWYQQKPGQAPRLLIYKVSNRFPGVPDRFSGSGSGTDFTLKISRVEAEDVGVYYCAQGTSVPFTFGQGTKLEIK")
"Not met"

Next binder, please.
### Prompt # bool: fold change of affinity of H183/L072 VH A57H (antibody, name in Kabat numbering, V domains shown) VH: QVQLVESGGGLVQPGRSLRLSCAASGFTFSNAWMHWVRQAPGKGLEWVAQIKDKGNAYAHYYAPSVKGRFTISRDDSKNSIYLQMNSLKTEDTAVYYCHYVHYASASTVLPAFGVDAWGQGTTVTVSS VL: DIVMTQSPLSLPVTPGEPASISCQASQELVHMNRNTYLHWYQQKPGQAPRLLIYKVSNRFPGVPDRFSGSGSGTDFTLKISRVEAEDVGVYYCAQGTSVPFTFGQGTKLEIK >= 0.7 fold
### Response Not met
